Test system: 233499-124-R-J3-PDC spheroids with HUVEC/MSC, viability;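 also: spheroids exposed to agents for seven days before readout; percent viability relative to DMSO vehicle control taken as 100%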
ASSAY INFO: Anticancer human tumor 233499-124-R-J3-PDC patient-derived colon adenocarcinoma cell line growth inhibition [PI3K]
EXPERIMENTAL SETUP: second compound 1 µM; first compound 0.1 µM; stronger effect = lower value
PROPERTY MEASURED: viability, T/C (%)
Write the answer as a number in %, unit excluded.

Reference set (3 entries):
MOLECULE: CC(C)NCC(C(=O)N1CCN(c2ncnc3c2C(C)CC3O)CC1)c1ccc(Cl)cc1 (configuration not stated) + COc1c(OCCCN2CCOCC2)ccc2c3n(c(=NC(=O)c4cnc(N)nc4)nc12)CCN3
PROPERTY MEASURED: viability, T/C
RESULT: 11.1

MOLECULE: CNC(=O)c1ccc(N2C(=S)N(c3ccc(C#N)c(C(F)(F)F)c3)C(=O)C2(C)C)cc1F + CC(Nc1ccc2c(c1)OCCn1cc(N3C(=O)OCC3C(F)F)nc1-2)C(N)=O
PROPERTY MEASURED: viability, T/C
RESULT: 52.1

MOLECULE: CNC(=O)c1ccc(N2C(=S)N(c3ccc(C#N)c(C(F)(F)F)c3)C(=O)C2(C)C)cc1F + COc1c(OCCCN2CCOCC2)ccc2c3n(c(=NC(=O)c4cnc(N)nc4)nc12)CCN3
PROPERTY MEASURED: viability, T/C
RESULT: 24.7

# input Which viability, T/C value belongs to C#Cc1c(F)ccc2cc(O)cc(-c3ncc4c(N5CC6CCC(C5)N6)nc(OCC56CCCN5CC(F)C6)nc4c3F)c12 (configuration not stated) + CC(Nc1ccc2c(c1)OCCn1cc(N3C(=O)OCC3C(F)F)nc1-2)C(N)=O ?
# output 58.6

# input Query C[C@@H](NC(=O)c1ncnc(N)c1Cl)c1ncc(C(=O)Nc2cc(C(F)(F)F)c(Cl)cn2)s1 + CC(Nc1ncnc2nc[nH]c12)c1cc2cccc(Cl)c2c(=O)n1-c1ccccc1 next
# output 92.9

# input Query CCCS(=O)(=O)Nc1ccc(F)c(C(=O)c2c[nH]c3ncc(-c4ccc(Cl)cc4)cc23)c1F + COc1c(OCCCN2CCOCC2)ccc2c3n(c(=NC(=O)c4cnc(N)nc4)nc12)CCN3 next
# output 9.36

# input Query CC(=O)c1c(C)c2cnc(Nc3ccc(N4CCNCC4)cn3)nc2n(C2CCCC2)c1=O + CC(Nc1ncnc2nc[nH]c12)c1cc2cccc(Cl)c2c(=O)n1-c1ccccc1 next
# output 81.8

# input Query CCCS(=O)(=O)Nc1ccc(F)c(C(=O)c2c[nH]c3ncc(-c4ccc(Cl)cc4)cc23)c1F + CC(Nc1ccc2c(c1)OCCn1cc(N3C(=O)OCC3C(F)F)nc1-2)C(N)=O next
# output 45.4

# input Query CC1(C)CCC(CN2CCN(c3ccc(C(=O)NS(=O)(=O)c4ccc(NCC5CCOCC5)c([N+](=O)[O-])c4)c(Oc4cnc5[nH]ccc5c4)c3)CC2)=C(c2ccc(Cl)cc2)C1 + COc1c(OCCCN2CCOCC2)ccc2c3n(c(=NC(=O)c4cnc(N)nc4)nc12)CCN3 next
# output 2.35

# input Query C[C@@H](NC(=O)c1ncnc(N)c1Cl)c1ncc(C(=O)Nc2cc(C(F)(F)F)c(Cl)cn2)s1 + Cc1nc(NC(=O)N2CCCC2C(N)=O)sc1-c1ccnc(C(C)(C)C(F)(F)F)c1 next
# output 93.3
